Kindly state composite z-score for each of the entries shown.
Test: small-molecule binders of probe aNOTCH3, primary screen, biochemical, small-molecule microarray, 635/667 nm fluorescence (AID 1120);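 also: probe is a biotin-tagged antibody raised against NOTCH3 rather than NOTCH3 protein; score merges spot fluorescence near 667 nm with spot signal to noise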
Conditions: higher = more signal

Input line: Can you share its composite z-score? I mean this compound: C#CCN1C(C(=O)OCC)OC[C@H]1c1ccccc1 (stereo not given in full)
Output line: -0.128

Input line: Can you share its composite z-score? I mean this compound: `O=C(O)[C@H]1C[C@H]2C(=O)N[C@@H](Cc3ccccc3)C(=O)N2[C@H]1c1ccc(O)cc1`
Output line: -0.0918

Input line: Can you share its composite z-score? I mean this compound: `COCCCN1C(=O)[C@@]2(Cc3ccccc31)c1ccccc1C(=O)N(Cc1ccccc1Cl)[C@H]2c1ccc(CO)cc1`
Output line: -0.126

Input line: Can you share its composite z-score? I mean this compound: `CC(C)[C@@H](C(=O)O)n1cc(-c2ccccn2)nn1`
Output line: -0.146

Input line: Can you share its composite z-score? I mean this compound: COC(=O)C1=CC(c2ccc(CO)cc2)=CC(C2CC2)N(C)C=C1C(=O)OC (stereo not given)
Output line: -0.0903
